The reported numbers originate from patent US20250250357A1.

# System under test: T1, human MSLN-FL-his protein (human, UniProt Q13421 296-580)
# T1 construct: also called human MSLN full-length protein; hMSLN-FL-his; not shown: His tag
# T1 sequence (Q13421 other isoform, or with tags, fused parts or gaps): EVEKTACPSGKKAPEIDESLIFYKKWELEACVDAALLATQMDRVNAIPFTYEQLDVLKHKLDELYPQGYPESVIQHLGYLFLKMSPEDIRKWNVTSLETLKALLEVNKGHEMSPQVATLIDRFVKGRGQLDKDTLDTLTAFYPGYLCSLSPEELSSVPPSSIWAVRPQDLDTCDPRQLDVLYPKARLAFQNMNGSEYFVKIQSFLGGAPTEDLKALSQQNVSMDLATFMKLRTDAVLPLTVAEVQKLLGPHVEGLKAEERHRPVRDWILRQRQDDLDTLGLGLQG
# Protocol: ELISA, coated antigen; antibody 0.01 nM
Outcome measure: OD450 (OD450)
# number only, unit OD450 dropped from output

State the recorded OD450 for this entry: S009-F4-94.15 (antibody, human IgG1, kappa, V domains shown, Human-murine chimeric antibody, human IgG1/kappa constant regions) VH: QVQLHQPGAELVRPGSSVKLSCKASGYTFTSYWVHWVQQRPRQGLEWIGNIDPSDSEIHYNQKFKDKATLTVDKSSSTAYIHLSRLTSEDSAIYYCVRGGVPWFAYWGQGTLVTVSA VL: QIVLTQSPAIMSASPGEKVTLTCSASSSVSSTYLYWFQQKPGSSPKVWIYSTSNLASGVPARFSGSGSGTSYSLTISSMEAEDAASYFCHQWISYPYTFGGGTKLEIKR
0.57
